The values you see were collected from PubChem BioAssay (NCI).

Test system: SK-MEL-2 melanoma
Method summary: NCI-60 one-dose screen, 48 h (100 = growth as untreated, 0 = no growth, -100 = all killed)
Experimental conditions: 10 µM unless noted
The panel holds about 83,000 compounds, 20% with a hit somewhere; the sample as a whole holds those more often. Calls of active or inactive are those of the source. The calls were made as follows: active = growth percent below 10; inactive = the rest.
Below is a list of entries, each paired with its recorded growth value.

Molecule	growth
COc1cc2c(cc1OC)-c1c(oc3c4c(ccc3c1=O)OC(C)(C)C=C4)CO2	74.3% (inactive)
CN1C(=O)C2(NN=C(c3cccc4ccccc34)S2)c2ccccc21 (stereo not given)	37.1% (inactive)
O=C(Nc1ccc(-n2cc(-c3ccncc3)c(-c3ccc(O)c(Cl)c3)n2)cc1)c1cc(Cl)cc(Cl)c1	7.85% (active)
CCCCOc1nc2ccc(Cl)cc2cc1/C=C/C(=O)/C=C/c1ccc(OC)cc1	90.5% (inactive)
CC[C@H]1[C@@H]2C=C[C@@H]3[C@H]4C/C=C\C(=O)NCCC[C@@H]5NC(=O)/C(=C(O)/C=C/[C@@H]4C[C@@H]3[C@H]2C[C@H]1C)C5=O	46% (inactive)
COc1cc2nc(C(=O)N3CCCCC3)cc(Nc3ccccc3)c2cc1OC	99.5% (inactive)
Cn1c(I)c(C#C[Si](C)(C)C)c(=O)[nH]c1=O	60.7% (inactive)
C/C(=N/NC(=O)Cn1c2ccccc2c2ccncc21)c1cccs1	96.6% (inactive)
COC(=O)c1ccc(NC(N)=NCC(C)(C)COc2ccc(C(F)(F)F)cc2)nc1	79.9% (inactive)
CN1CCN(Cn2nc(-c3cc(Cl)cc(Cl)c3Cl)n(/N=C/c3ccc(Cl)cc3)c2=S)CC1	97.6% (inactive)
Cc1ncc(CO)c(C(=O)O)c1O	89.7% (inactive)
COc1cc(/C=C/C(=O)c2c(C)n([O-])c3cc(C)c(C)cc3[n+]2=O)cc(OC)c1OC	69.6% (inactive)
O=C(Nc1ccc(-n2ccc3c(NC(=O)c4ccccc4)ncnc32)cc1)c1cccc(C(F)(F)F)c1	85.8% (inactive)
c1coc(CSc2ncnc3nc[nH]c23)c1	105% (inactive)
COc1cc(NC(C)CCCN2C(=O)c3ccccc3C2=O)c2nc(C)ccc2c1OC (stereo not given)	96.8% (inactive)
COc1ccc(-n2c(-c3ccc(NC(=O)CCCl)cc3)nnc2-c2cc(OC)c(OC)c(OC)c2)cc1	48.3% (inactive)
O=c1[nH]ccc2nc(N3CCC(O)CC3)nc(Nc3cccc(C(F)(F)F)c3)c12	25.2% (inactive)
O=C(Nc1ccc(-n2cc(-c3ccncc3)c(-c3ccc(O)c(Cl)c3)n2)cc1)Nc1cc(C(F)(F)F)cc(C(F)(F)F)c1	77.6% (inactive)
CCCOC(=O)c1ccc([N+](=O)[O-])o1	102% (inactive)
ClC1c2ccccc2CCc2ccccc21	87.8% (inactive)

###

Tested on: M14 melanoma
Method summary: NCI-60 one-dose screen, 48 h
Experimental conditions: 10 µM unless noted
About 83,000 compounds went through this panel and 20% of them were active in at least one assay; those are over-represented in the sample as a whole. Activity calls are given as the source filed them. How the source made its calls: active means growth percent below 10; inactive means the rest.
Outcomes: active, inactive

Record smiles	Label
Nc1ccc(S(=O)(=O)Nc2cc(I)cc(I)c2)cc1	inactive
O=C(CSc1nnc(-c2cc3c([nH]c4ccccc43)c(-c3cccc(O)c3)n2)n1-c1ccccc1)c1ccccc1	inactive
Cc1cc(NCCN(C(C)C)C(C)C)nc(/N=C(\N)Nc2ccc(Cl)c(C(F)(F)F)c2)n1	active
Nc1nccc2c1ccn2-c1ccc(NC(=O)Nc2cccc(C(F)(F)F)c2)cc1	inactive
CCn1c(C)nc([N+](=O)[O-])c1Sc1nc(N)nc2nc[nH]c12	active
CC(C)(C)C(=O)/C=c1/[nH]c(=O)/c(=C/c2ccccc2O)s1	inactive
COC(=O)c1oc2c(C(C)=O)c(OCCCN(C)C)ccc2c1C	inactive
COc1ccc(Cl)cc1NC(=O)c1cc2c([nH]1)-c1nc(N)sc1CCC2	inactive
O=C(c1ccccc1)[C@H]1[C@@H]2CCCN2[C@]2(C(=O)Nc3ccc(F)cc32)[C@]12C(=O)Nc1ccccc12	inactive
Cc1cc2nc(-c3c(N)ncc(C#N)c3-c3ccc(Cl)cc3)[nH]c2cc1C	inactive

###

Below is a list of entries, each paired with its recorded growth value.
Test system: CAKI-1 renal
Method summary: NCI-60 one-dose screen, 48 h (100 = growth as untreated, 0 = no growth, -100 = all killed)
Experimental conditions: 10 µM
Compounds without any hit were thinned out: in the full panel of roughly 83,000, 20% have a hit.
Property measured: growth (%)

Compound	Test result
c1ccc(CNCCN(CCNCc2ccccn2)Cc2ccc3ccccc3c2)nc1	-81.8
COc1cc(CN(c2ccc(Cl)cc2)C2OC(=O)c3ccccc32)cc(OC)c1OC (stereo not drawn)	69.1
COc1ccc(OCC(O)CN2CCN(c3ccc(Cl)cc3)CC2)cc1 (stereo not drawn)	79.9

###

System: SK-MEL-2 melanoma
Method summary: NCI-60 one-dose screen, 48 h
Experimental conditions: 10 µM unless noted
About 83,000 compounds went through this panel and 20% of them were active in at least one assay; those are over-represented in the sample as a whole. Activity calls are given as the source filed them. The calls were made as follows: active = growth percent below 10; inactive = the rest.
Outcomes: active, inactive

Molecule	Label
CCC1S/C(=N\N=C(/C)c2cc3ccccc3o2)N(c2ccccc2)C1=O (stereo not given)	inactive
CCCN1C(=O)CSC1=Nc1ccc2cc3ccc(N=C4SCC(=O)N4CCC)cc3nc2c1	inactive
CC(=S)Nc1ccccc1	inactive
COc1cc(NC(C)CCCN2C(=O)c3ccccc3C2=O)c2ncccc2c1OC (stereo not given)	inactive
O=[N+]([O-])c1cccc2cc(S(=O)(=O)O)ccc12	inactive
CNCCCOc1c(Br)cc(CCNC(=O)/C(Cc2cc(Br)c(OC)c(Br)c2)=N/O)cc1Br	active
O=C(Nc1ccc(-n2ccc3c(NC(=O)c4ccccc4)ncnc32)cc1)Nc1ccc(Cl)c(Cl)c1	inactive
CN1CCN(Cn2nc(-c3cc(F)c(Cl)cc3Cl)n(/N=C/c3ccc(N(C)C)cc3)c2=S)CC1	inactive
COc1ccccc1N1CCN(CCCOc2ccc(OCCCN3CCN(c4ccccc4OC)CC3)c(C(=O)c3cc(OC)c(OC)c(OC)c3)c2)CC1	inactive
COc1ccccc1S(=O)(=O)Nc1ccc2c3c(cc(-c4ccoc4)nc13)C(=O)N2C	inactive

###

System: SF-295 CNS
Method summary: NCI-60 one-dose screen, 48 h (100 = growth as untreated, 0 = no growth, -100 = all killed)
Experimental conditions: 10 µM unless noted
This is part of a sample that, as a whole, favours compounds with a hit. Of some 83,000 tested, about 20% had one in any assay.
Below is a list of entries, each paired with its recorded growth value.
Property measured: growth (%)

Record smiles	Result unit	Test result
CCn1cc(/C=C2\Oc3cc(OCC#N)ccc3C2=O)c2cc(OC)ccc21	%	16.7
O=C(Nc1ccc(-n2ccc3c(NC(=O)c4ccccc4)ncnc32)cc1)c1cccc(C(F)(F)F)c1	%	33.2
Nc1ncc(-c2ccc3ncnc(Nc4cncc(Cl)c4)c3c2)cn1	%	77.2
C=C1C(=O)O[C@H]2[C@H]1CC/C(COC(=O)c1ccccc1)=C\CC[C@@]1(C)O[C@@H]21	%	60.8
O=C1COc2ccccc2C(=O)N1CCCCN1CCCCC1	%	93.9

###

Test system: RPMI-8226 leukemia
Method summary: NCI-60 one-dose screen, 48 h (100 = growth as untreated, 0 = no growth, -100 = all killed)
Experimental conditions: 10 µM unless noted
The panel holds about 83,000 compounds, 20% with a hit somewhere; the sample as a whole holds those more often.

Molecule	growth (%)
C=C1C(=O)O[C@H]2[C@H]1CC/C(COC(=O)c1ccccc1)=C\CC[C@@]1(C)O[C@@H]21	-36.4
CCNc1ncnc2n[nH]nc12	95.5
Nc1ncnc2c1c(C(F)(F)F)cn2[C@@H]1O[C@H](CO)[C@@H](O)[C@H]1O	-20.3
NC(CSC(c1ccccc1)(c1ccccc1)c1ccc(F)cc1)C(=O)O (stereo not given)	-25.9
C=C1C(=O)O[C@H]2[C@H]1CC/C(COC(=O)n1ccnc1C)=C\CC[C@@]1(C)O[C@@H]21	100
CN(C)c1ccc(/C=N/n2c(-c3cc(F)c(Cl)cc3Cl)nn(CN3CCOCC3)c2=S)cc1	97.2
Nc1ccc(S(=O)(=O)Nc2ccnn2-c2ccccc2)cc1	117
Cc1cn(C2CC(F)C(CO)O2)c(=O)[nH]c1=O (stereo not given)	82.5
COc1ccc(SC2c3ccc(O)cc3Oc3nc(N)c(C#N)c(N)c32)cc1 (stereo not given)	96.7
COc1ccc(/C(Cl)=N/N=C(\Cl)c2cc(OC)c(OC)c(OC)c2)cc1OC(C)=O	89.4

###

Tested on: MCF7 breast
Method summary: NCI-60 one-dose screen, 48 h (100 = growth as untreated, 0 = no growth, -100 = all killed)
Experimental conditions: 10 µM unless noted
The panel holds about 83,000 compounds, 20% with a hit somewhere; the sample as a whole holds those more often.
Values of growth strictly less than 90% map to 1, and values of at least 90% map to -1.

Record smiles	Label
CCn1c(SCC(=O)c2ccc(Br)cc2)nnc1-c1cc2c([nH]c3ccccc32)c(-c2cccc(O)c2)n1	1
CCOc1ccc(NC(=O)Nc2cc(C(C)C)ccc2C)cc1	-1
O=C(Nc1cccc(-n2ccc3c(NC(=O)c4ccccc4)ncnc32)c1)Nc1ccc(Cl)c(C(F)(F)F)c1	1
NN=C(c1ccc(Cl)cc1)c1ccc(Cl)cc1	-1
